Data provenance: patent US4457932A

tested on: ethanol-induced gastric ulcers (lesions); experiment: Ethanol-induced ulcer model in the rat; type: in vivo, Adult male Long-Evans rats; details: po; 30 mg/kg p.o.; rat; read-out: Antiulcer Activity, % Inhibition (of lesion formation)
Please respond with reported inhibition in vivo at 30 mg/kg for every item in the list.
Quick reminder: number only, in %, skip the unit.

Short answer please: inhibition in vivo at 30 mg/kg, ethanol-induced gastric ulcers (lesions), entry Cc1ccc2ncc(-c3nnn[nH]3)c(=O)n2c1
79

Moving on to the next compound: Cc1cc(C)c2ncc(-c3nnn[nH]3)c(=O)n2c1
92

And O=c1c(-c2nnn[nH]2)cnc2c3c(ccn12)CCCC3 ?
68

What do you have for Cc1cccc2ncc(-c3nnn[nH]3)c(=O)n12 ?
75

And CCCCc1ccc2ncc(-c3nnn[nH]3)c(=O)n2c1 ?
54

Another compound to look at: CCCc1cccn2c(=O)c(-c3nnn[nH]3)cnc12
77

Likewise for Cc1ccn2c(=O)c(-c3nnn[nH]3)cnc2c1 ?
70

Same for Cc1cccn2c(=O)c(-c3nnn[nH]3)cnc12 [drawing 30]
88
